Tested on: SK-OV-3 ovarian
Experiment: NCI-60 one-dose screen, 48 h (100 = growth as untreated, 0 = no growth, -100 = all killed)
Settings: 10 µM unless noted
This is part of a sample that, as a whole, favours compounds with a hit. Of some 83,000 tested, about 20% had one in any assay. Active and inactive are the calls of the source. The calls were made as follows: active = growth percent below 10; inactive = the rest.
parameter: growth

molecule: COc1ccc(-c2cnc(-c3ccc(F)cc3)[nH]2)cc1
growth: 121% (inactive)
//
molecule: CCCCn1c(-c2cccc(OC)c2)nc2cc(OC)c(OC)cc2c1=O
growth: 119% (inactive)
//
molecule: COc1cc(NC(C)CCCN2C(=O)c3ccccc3C2=O)c2nc(C)ccc2c1OC (stereo not given)
growth: 106% (inactive)

The molecule c1cncc(-c2nc3ccccc3[nH]2)c1 showed growth equal to 95.3% (inactive)

Field growth (entry COc1ccc(/C=C/C(=O)c2ccc(-n3cc(CN4CCN(c5cc6c(cc5F)c(=O)c(C(=O)O)cn6C5CC5)CC4)nn3)cc2)cc1OC ) reads 67.5% (inactive)

For record Nc1c(C(=O)O)[nH]c(=O)[nH]c1=O the listed growth is 102% (inactive)

====

System: SNB-75 CNS
Assay: NCI-60 one-dose screen, 48 h (100 = growth as untreated, 0 = no growth, -100 = all killed)
Settings: 10 µM unless noted
About 83,000 compounds went through this panel and 20% of them were active in at least one assay; those are over-represented in the sample as a whole.
Given measured growth, output Criterion met if it is greater than or equal to 50% and Criterion not met if not.

compound: COc1ccc(-c2nnc(SCC(=O)Nc3ccc(C(=O)/C=C/c4ccc(OC)c(OC)c4)cc3)o2)cc1
label-class: Criterion met

compound: CCCCNC(=O)Oc1ccc(/C(=C(/CC)Cc2ccccc2)c2ccc(OCCCN(C)C)cc2)cc1
label-class: Criterion met

compound: COC(=O)c1ccc2c(c1)Oc1ccc(Cl)cc1-c1cc(C)nn1-2
label-class: Criterion met

Then this compound:
Confirm if growth reported for the compound COc1ccccc1N1CCN(CCCOc2ccc(OCCCN3CCN(c4ccccc4OC)CC3)c(C(=O)c3cc(OC)c(OC)c(OC)c3)c2)CC1 is 50% or above.
Criterion met

====

Tested on: NCI-H226 lung
Test: NCI-60 one-dose screen, 48 h
Conditions: 10 µM unless noted
This is part of a sample that, as a whole, favours compounds with a hit. Of some 83,000 tested, about 20% had one in any assay. Activity calls are given as the source filed them. Rule for the calls: active = growth percent below 10; inactive = the rest.
Classes to choose from: active, inactive

Observe how each entry below is paired with its result.
chemical-string: COc1ccc(C(=O)Cn2cnc3c(Nc4cc(C(=O)Nc5ccc(N6CCN(CCO)CC6)cc5)ccc4C)ncnc32)cc1
study-target: NCI-H226 lung
label-class: inactive
--
chemical-string: COc1ccccc1S(=O)(=O)Nc1ccc2c3c(cc(-c4ccoc4)nc13)C(=O)N2C
study-target: NCI-H226 lung
label-class: inactive
--
chemical-string: CO[C@H]1/C=C/C=C/C=C/C[C@H](OC(=O)[C@@H](C)NC(=O)C2CCCCC2)[C@H](C)[C@@H](O)/C(C)=C\CCC2=CC(=O)C=C(NC(=O)C1)C2=O
study-target: NCI-H226 lung
label-class: active

Now for another entry.
Recorded call for COc1ccc2c(c1)nnn1c3ncccc3c(N=O)c21 ?
active

====

growth: recorded values
System: EKVX NSCLC
Assay: NCI-60 one-dose screen, 48 h (100 = growth as untreated, 0 = no growth, -100 = all killed)
Conditions: 10 µM unless noted
The panel holds about 83,000 compounds, 20% with a hit somewhere; the sample as a whole holds those more often. Calls of active or inactive are those of the source. How the source made its calls: active means growth percent below 10; inactive means the rest.

Here is how some compounds turned out for growth.
compound: CC(C)(C)OC(=O)N1CC(Cn2cc(C(F)(F)F)c3c(Cl)ncnc32)C1
growth: 50.3% (inactive)

compound: COc1ccc2c(c1)C(=O)/C(=C/c1ccc(OCC(=O)c3ccc(Cl)cc3)cc1)O2
growth: 82% (inactive)

compound: O=c1c2ccccc2sc2c(N3CCCC3)nc3ccccc3c12
growth: 103% (inactive)

compound: C/C(=N/O)c1ccc(NC(=O)Cn2nc(-c3ccc(Cl)cc3)nc2N)cc1
growth: 98.6% (inactive)

compound: O=C(O)c1ccc(-n2cc(/C=N/Nc3ccc(F)cc3)c(-c3cccc(C(F)(F)F)c3)n2)cc1
growth: 70.8% (inactive)

EKVX NSCLC data for COc1ccc(-n2c(-c3ccc(NC(=O)CCCl)cc3)nnc2-c2cc(OC)c(OC)c(OC)c2)cc1 ; its growth: 51.2% (inactive)

Response field growth (EKVX NSCLC) for item CC12CCC3C(CCC4CC(O)CCC43C)C1C/C(=C/O)C(=O)O2 (stereo not drawn) : 104% (inactive)

Reported growth (EKVX NSCLC) for entry COc1ccc(NC(=O)COCCOCCNC[C@@H]2C(=O)O[C@H]3[C@H]2CC/C(COC(=O)OC/C2=C/CC[C@@]4(C)O[C@H]4[C@H]4OC(=O)[C@@H](CN(C)C)[C@@H]4CC2)=C\CC[C@@]2(C)O[C@@H]32)c(O)c1C(N)=O is 81.5% (inactive)

Entry source: PubChem BioAssay (NCI)
